Sourced from the RNAGym collection of RNA variant scans (doi:10.1126/science.aae0568)

B1: tRNA (parent)
chain: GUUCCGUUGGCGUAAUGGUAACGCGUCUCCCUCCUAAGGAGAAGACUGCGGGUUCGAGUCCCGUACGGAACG

# Variants of: B1
# EXPERIMENTAL_DETAILS: yeast fitness relative to wild type (ratio to wild type); higher = fitter; tRNA-Arg(CCU), competitive growth, 37 C, YPD
Variants at the floor of the assay were thinned out.
RESULT_TYPE: yeast fitness
Respond using a number only.

Asked: Would you mind telling me what yeast fitness value was observed for A20G A45C A70C ?
Given back: 0.789

Asked: Would you mind telling me what yeast fitness value was observed for C11U U19C G67C ?
Given back: 0.566

Asked: Would you mind telling me what yeast fitness value was observed for U26C C60A ?
Given back: 0.572

Asked: Would you mind telling me what yeast fitness value was observed for C4U C31U C55G U59A ?
Given back: 0.546

Asked: Would you mind telling me what yeast fitness value was observed for C5U C11A U13C C24G C30G C46U ?
Given back: 0.629

Asked: Would you mind telling me what yeast fitness value was observed for G23A G63A ?
Given back: 0.7

Asked: Would you mind telling me what yeast fitness value was observed for C22G C33U A40U U59A ?
Given back: 0.514

Asked: Would you mind telling me what yeast fitness value was observed for A42G G56A ?
Given back: 0.87

Asked: Would you mind telling me what yeast fitness value was observed for C11U U26C U47C ?
Given back: 0.799

Asked: Would you mind telling me what yeast fitness value was observed for G6A A20G A45G ?
Given back: 0.803

Asked: Would you mind telling me what yeast fitness value was observed for C22A C24U ?
Given back: 0.74

Asked: Would you mind telling me what yeast fitness value was observed for G67A A69C ?
Given back: 0.877

Asked: Would you mind telling me what yeast fitness value was observed for G6C C34U G44A C55G C66G ?
Given back: 0.649

Asked: Would you mind telling me what yeast fitness value was observed for C30G C33U ?
Given back: 0.555

Asked: Would you mind telling me what yeast fitness value was observed for C46U C61A ?
Given back: 0.83
